- System: Vero E6
- methodDescription: relative viability EC50 (midpoint between 100% and the lowest measured viability); higher = less toxic
- experimentalSetup: 72 h
A collection of compounds and their measured relative viability EC50

(Q) Query relative viability EC50 on Vero E6 for FC(F)OC(F)(F)C(F)Cl (stereo not drawn) [enflurane]
(A) > 10 µM

(Q) Test system Vero E6; read-out relative viability EC50; what value for CCCCC/C=C\C/C=C\CCCCCCCC(=O)NCCCC(=O)O [GABA-linoleamide] ?
(A) > 10 µM

(Q) Query for Vero E6: what relative viability EC50 does the record show for N#C/C(=C\c1ccc(O)c(O)c1)C(=O)Nc1ccccc1 [tyrphostin-AG-494] ?
(A) > 10 µM

(Q) # returns recorded relative viability EC50 (system: Vero E6) for N[C@@H](CSCCCO)C(=O)O [fudosteine]
(A) > 10 µM

(Q) Identify the measured relative viability EC50 of Cc1nn(C)c2c1C(c1cccc(Cl)c1)=NCCN2 [zometapine] for Vero E6.
(A) > 10 µM

(Q) What is its relative viability EC50 for Vero E6? Entry: Cn1c(=O)c2c(ncn2CCOC(=O)C(C)(C)Oc2ccc(Cl)cc2)n(C)c1=O [etofylline-clofibrate]
(A) > 10 µM

(Q) Can you look up relative viability EC50 on Vero E6 for CCc1cnn2c(NCc3ccc[n+]([O-])c3)cc(N3CCCC[C@H]3CCO)nc12 [dinaciclib] ?
(A) 0.044 µM

(Q) Report relative viability EC50 for CN(C)c1cccc(-c2c3c(=O)n(-c4ccccc4Cl)[nH]c3cc(=O)n2C)c1 tested on Vero E6.
(A) > 10 µM

(Q) What reported relative viability EC50 corresponds to CN(C)CCN(Cc1cccs1)c1ccccn1 [methapyrilene] on Vero E6?
(A) > 10 µM

(Q) Give relative viability EC50 (Vero E6) of the following compound: CN1CCN2c3c(cccc31)[C@@H]1CN(CCCC(=O)c3ccc(F)cc3)CC[C@@H]12 [lumateperone]
(A) > 10 µM

(Q) Form entry - test system: Vero E6; read-out: relative viability EC50; compound: CC(C)n1cnc2c(NCCc3ccc(O)cc3)nc(-c3csc4ccccc34)nc21 [stemregenin-1]
(A) > 10 µM

(Q) Request: relative viability EC50, test system Vero E6, entry Nc1ccc2cc3ccc(N)cc3nc2c1 [proflavine-hemisulfate]
(A) 1.9 µM

(Q) // lookup relative viability EC50 | system=Vero E6 | key= O=C(Nc1ccc(C(=O)O)c(O)c1)c1ccccc1 [benzoylpas]
(A) > 10 µM

(Q) Query the reported relative viability EC50 for Vero E6; item: Cc1nnc2n1-c1sc(CCC(=O)N3CCOCC3)cc1C(c1ccccc1Cl)=NC2 [apafant]
(A) > 10 µM

====

- Test system: Calu-3
- methodDescription: cell viability relative to DMSO; higher = less toxic
- experimentalSetup: 72 h; 1000 nM
// values below are reported cell viability
Answer with a number only, understood to be in %.

molecule | targetEntity | cell viability, %
COCc1nnc(N2CC(Oc3ccc(F)cc3Cl)C2)n1-c1ccc(OC)nc1 | Calu-3 | 104
CNC(=O)COC(=O)NCCC1CCN(c2cccc(C)n2)CC1 | Calu-3 | 103
CC(C(=O)O)c1ccc(C(=O)c2cccs2)cc1 (stereo unspecified) | Calu-3 | 86.6
Cc1cc(C)nc(SCC(=O)Nc2ncc(Cc3cccc4ccccc34)s2)n1 | Calu-3 | 91
O=C(O)c1ccc2[nH]cc(CCCCN3CC=C(c4ccccc4)CC3)c2c1 | Calu-3 | 96

With those in mind, consider the next molecule.
(Q) Requested read-out cell viability, target or system Calu-3, entry CN1CCC(=C2c3ccccc3Sc3ccccc32)CC1
(A) 100

====

- Test system: Vero E6
- methodDescription: cell viability relative to DMSO; higher = less toxic
- experimentalSetup: 72 h; 1 nM
Recorded measurements of cell viability, one per entry
Give the value, in units of %, as a plain number.

compound | scaleUnit | reportedValue
Cc1cc(C)c(N)c(C#Cc2cccc(F)c2)n1 | % | 99.5

(Q) Lab note: need cell viability with Vero E6 for entry OCc1c[nH]c2ccccc12 [indole-3-carbinol] , please look it up.
(A) 104

(Q) Value wanted: cell viability (Vero E6) of entry CC(=O)O[C@@H]1CC[C@@]2(C)[C@@H](CC[C@]3(C)[C@@H]2C(=O)C=C2[C@@H]4[C@@H](C)[C@H](C)CC[C@]4(C)CC[C@]23C)[C@@]1(C)C(=O)O [acetyl-11-keto-beta-boswellic-acid]
(A) 104

(Q) API: value(readout= cell viability, system= Vero E6, query= Cc1nc(Nc2ncc(C(=O)Nc3c(C)cccc3Cl)s2)cc(N2CCN(CCO)CC2)n1 [dasatinib] )
(A) 99

(Q) Value wanted: cell viability (Vero E6) of entry CCCCn1c(-c2ccccc2)nc(-c2ccccc2)c1CN(Cc1ccc2c(c1)OCO2)Cc1ccc2c(c1)OCO2
(A) 106

(Q) Notebook: pull reported cell viability for Vero E6, entry CCN(CC)CCNC(=O)c1ccc(I)cc1 [I-BZA]
(A) 91.3

(Q) Look up cell viability with Vero E6 for this compound: C1=C2CCCN[C@H]2[C@@H]2C[C@H]1[C@H]1CCCCN1C2 [aloperine]
(A) 102

(Q) Any idea what cell viability came out for CNC1CC(c2ccc(Cl)c(Cl)c2)c2ccccc21 (stereo not drawn) [indatraline] on Vero E6?
(A) 99.4

====

Below, each of the compounds is paired with its reported drug sensitivity score value.
- Test system: Calu-3
- methodDescription: drug sensitivity score (DSS) for viability; higher = more toxic; extreme values may be limits of the assay
- experimentalSetup: 72 h
Form field (numeric): enter value without unit.

Consider the reported drug sensitivity score for these compounds:
compound | targetEntity | reportedValue
Oc1cc(O)c2c(c1)O[C@H](c1ccc(O)c(O)c1)[C@H](O)[C@H]2c1c(O)cc(O)c2c1O[C@H](c1ccc(O)c(O)c1)[C@H](O)C2 | Calu-3 | 0
Cc1cc(N2CCCCC2)nc2ccccc12 | Calu-3 | 0
CC(C(=O)O)c1ccc(C(=O)c2cccs2)cc1 (stereo not given) | Calu-3 | 1.6
COc1ccn2ncc(-c3nc4[nH]nc(NC(=O)c5ccc(F)cc5)c4cc3F)c2c1 | Calu-3 | 0

(Q) For the compound Nc1ccc(S(=O)(=O)Nc2ccccn2)cc1 , what drug sensitivity score is on record?
(A) 0

====

- Test system: Caco-2
- methodDescription: cell viability relative to DMSO; higher = less toxic
- experimentalSetup: 72 h; 10000 nM
Please assign No whenever cell viability is at or above 80%, and Yes whenever it is below.

molecule | targetEntity | classLabel
O=[N+]([O-])/C=C/c1ccc2c(c1)OCO2 | Caco-2 | Yes
CC(C)CN(C[C@@H](OP(=O)(O)O)[C@H](Cc1ccccc1)NC(=O)O[C@H]1CCOC1)S(=O)(=O)c1ccc(N)cc1 | Caco-2 | No
CCNCc1cc(C(C)(C)C)c(O)c(C(C)(C)C)c1 | Caco-2 | No
Nc1nc(OCc2cc(Br)cs2)c2[nH]cnc2n1 | Caco-2 | No

(Q) Consider Cc1cc(C2CCCCC2)n(O)c(=O)c1 . Does its cell viability lie strictly below 80%?
(A) Yes

(Q) Consider CC1(COc2ccc(CC3SC(=O)NC3=O)cc2)CCCCC1 (configuration not stated) . Does its cell viability lie strictly below 80%?
(A) No

====

# maps each entry to its drug sensitivity score
- Tested on: Calu-3
- methodDescription: drug sensitivity score (DSS) for viability; higher = more toxic; extreme values may be limits of the assay
- experimentalSetup: 72 h

compound | drug sensitivity score
COc1cc2ncnc(Nc3ccc(F)c(Cl)c3)c2cc1NC(=O)/C=C/CN1CCCCC1 [dacomitinib] | 23.8

(Q) If you can, please state the reported drug sensitivity score value of C[C@@]1(O)[C@H](O)[C@@H](CO)O[C@H]1n1ccc(N)nc1=O [NM107] .
(A) 0.3

(Q) # query: drug sensitivity score of entry Cc1ncc(C)n2nc([C@@H]3C[C@H]3c3nc4c5cccnc5ccn4c3C)nc12 [PDE10-IN-1]
(A) 0

(Q) Value lookup for drug sensitivity score; key = Cc1cc(-c2nc(-c3ccc(OC(F)(F)F)cc3)no2)nn1Cc1ccnc(N2CCN(C3CC3)CC2)c1 [BAY-87-2243]
(A) 0.2

(Q) So what's the measured drug sensitivity score for this one? Cc1nc(C#Cc2ccnc(Cl)c2)c(C)n1-c1ccc(OC(F)(F)F)cc1 [CTEP]
(A) 0

(Q) Given the entry Cn1ccc2cc(NC(=O)Nc3cccnc3)ccc21 , report its measured drug sensitivity score.
(A) 0

(Q) Could you tell me which drug sensitivity score is on file for CC(C)(COP(=O)(O)OP(=O)(O)OC[C@H]1O[C@@H](n2cnc3c(N)ncnc32)[C@H](O)[C@@H]1OP(=O)(O)O)[C@@H](O)C(=O)NCCC(=O)NCCS [coenzyme-A] ?
(A) 0

(Q) Endpoint output: drug sensitivity score of N=C(N)NN=C1C=CC(=NNC(N)=S)C=C1 [ambazone] . Value?
(A) 0

(Q) Tell me the measured drug sensitivity score of COc1ccc(Cl)cc1C(=O)NCCc1ccc(C(=O)O)cc1 [meglitinide] , please.
(A) 0

(Q) Tell me the measured drug sensitivity score of CCOC(=O)Nc1ccc2c(c1)N(C(=O)CN(C)C)c1ccccc1CC2 [tiracizine] , please.
(A) 0

(Q) What measured drug sensitivity score goes with CCc1cnn2c(NCc3ccc[n+]([O-])c3)cc(N3CCCC[C@H]3CCO)nc12 [dinaciclib] ?
(A) 21.6

(Q) For the compound shown here, Cn1c(Nc2ccc(C(F)(F)F)cc2)nc2cc(Oc3ccnc(-c4ncc(C(F)(F)F)[nH]4)c3)ccc21 [RAF265] , give the reported drug sensitivity score.
(A) 5.6

(Q) Consider the compound COC(=O)c1ccc2c(c1)NC(=O)/C2=C(\Nc1ccc(N(C)C(=O)CN2CCN(C)CC2)cc1)c1ccccc1 [nintedanib] and give its measured drug sensitivity score.
(A) 0

(Q) # drug sensitivity score lookup, item CCN(CC)CCNC(=O)c1ccc(I)cc1 [I-BZA]
(A) 0

(Q) Looking for the measured drug sensitivity score of CN(C[C@@H]1COCCO1)S(=O)(=O)Nc1ccc2ccc3ncc(-c4cnn(C)c4)cc3c(=O)c2c1 [MK-2461] , can you help?
(A) 0

(Q) Reported drug sensitivity score for O=C(N/N=C/c1ccccc1O)c1ccccc1O [SCS] : what is it?
(A) 5
